# Tgt: UniProtKB P00918
# Method Summary: Human carbonic anhydrase-II inhibition assay (absorbance, 4-nitrophenyl acetate substrate)
# Assay type: biochemical
# Condition Description: hCA II 8 nM, 4-NPA 2.5 mM, absorbance 340 nm, room temperature 1 hour; read-out: CA-II IC50
Rule: IC50 below 7 nM gives Criterion met, anything at or above gives Criterion not met.

Smiles Entry: CC(C)(C)C(=O)Nc1cc(Cl)cnc1COC(=O)N1CC2=C(C1)CN(C(=O)c1cc(F)c(S(N)(=O)=O)cc1F)C2
Label Class: Criterion not met
--
Smiles Entry: CC(C)(C)C(=O)Nc1cc(C(F)(F)F)cnc1COC(=O)N1CC2=C(C1)CN(C(=O)c1c(F)cc(S(N)(=O)=O)cc1F)C2
Label Class: Criterion not met
--
Smiles Entry: NS(=O)(=O)c1ccc(C(=O)N2CC3=C(CN(C(=O)c4cc(OCC5CCOCC5)nc(C5CC5)c4)C3)C2)c(F)c1
Label Class: Criterion met
--
Smiles Entry: CC(C)(C)C(=O)Nc1cc2ccccc2nc1COC(=O)N1CC2=C(C1)CN(C(=O)c1ccc(S(N)(=O)=O)cc1F)C2
Label Class: Criterion met
--
Smiles Entry: Cc1ccc(NC(=O)C(C)(C)C)c(COC(=O)N2CC3=C(C2)CN(C(=O)c2ccc(S(N)(=O)=O)cc2F)C3)n1
Label Class: Criterion met
--
Smiles Entry: CC(C)(C)C(=O)Nc1cc(C#N)cnc1COC(=O)N1CC2=C(C1)CN(C(=O)c1c(F)cc(S(N)(=O)=O)cc1F)C2
Label Class: Criterion not met
--
Smiles Entry: CC(C)(C)C(=O)Nc1cc(C(F)(F)F)cnc1COC(=O)N1CC2=C(C1)CN(C(=O)c1ccc(S(N)(=O)=O)c(F)c1F)C2
Label Class: Criterion not met
--
Smiles Entry: CC(C)(C)C(=O)Nc1ccc(Cl)nc1COC(=O)N1CC2=C(C1)CN(C(=O)c1ccc(S(N)(=O)=O)cc1F)C2
Label Class: Criterion met
--
Smiles Entry: CC(C)(C)C(=O)Nc1ccc(Cl)nc1COC(=O)N1CC2=C(C1)CN(C(=O)c1cc(F)c(S(N)(=O)=O)cc1F)C2
Label Class: Criterion met
--
Smiles Entry: CC(C)(C)C(=O)Nc1cc(C(F)(F)F)cnc1COC(=O)N1CC2=C(C1)CN(C(=O)c1ccc(S(N)(=O)=O)cc1F)C2
Label Class: Criterion met
--
Smiles Entry: CC(C)(C)C(=O)Nc1cccnc1COC(=O)N1CC2=C(C1)CN(C(=O)c1ccc(S(N)(=O)=O)cc1F)C2
Label Class: Criterion met
